Numbers sourced from the OPERA property sets (Mansouri et al. 2018).

// class assignment uses logP with these ranges: bin A: < 2; bin B: ≥ 2 and < 3; bin C: ≥ 3

1. CN(C)c1cccc2nc(N)nc(N)c12	bin A
2. Cc1coc2nc3oc(=O)ccc3c(C)c12	bin A
3. Fc1ccccc1CNc1[nH]cnc2ncnc1-2	bin B
4. COc1ccc(C2Cc3ccccc3N(CCN(C)C)C(=O)C2C)cc1 (stereo not given)	bin C
5. COC(=O)C(C)NP(=O)(OCC1C=CC(n2cc(C)c(=O)[nH]c2=O)O1)Oc1cccc(I)c1 (stereo not given)	bin A
6. CCCOCCCNc1ncnc2c1ncn2C1OC(CO)C(O)C1O (stereo not given)	bin A

Exam item: Consider COc1ccc(C2=NC(C)(C(=O)O)CS2)c(O)c1 (stereo not given) . To which logP class does it belong?
Marked response: bin A

Exam item: Consider NC1=NCC(COc2ccc(-c3ccccc3)cc2)O1 (stereo not given) . To which logP class does it belong?
Marked response: bin B

Exam item: Consider CC=C(C)C(=O)OC1CC(C)CCC1C(C)C (stereo not given) . To which logP class does it belong?
Marked response: bin C

Exam item: Consider COc1nc(C)nc(Cl)c1NC1=NCCN1 . To which logP class does it belong?
Marked response: bin A

Exam item: Consider CCc1c(O)c(=O)ccn1CCCO . To which logP class does it belong?
Marked response: bin A

Exam item: Consider CC(=O)OCC1OC(n2cc(F)c(=O)[nH]c2=O)C(OC(C)=O)C1OC(C)=O (stereo not given) . To which logP class does it belong?
Marked response: bin A

Exam item: Consider COc1cccc2c1C(=O)c1c(O)c3c(c(O)c1C2=O)CC(O)(C(=O)CO)CC3OC1CC(N(C)C)C(O)C(C)O1 (stereo not given) . To which logP class does it belong?
Marked response: bin A

Exam item: Consider Cc1cc(=O)oc2c(C)c3occc3cc12 . To which logP class does it belong?
Marked response: bin B

Exam item: Consider Clc1cccc(N2CCN(CCn3nnc4ccccc43)CC2)c1 . To which logP class does it belong?
Marked response: bin C

Exam item: Consider C1CCSC1 . To which logP class does it belong?
Marked response: bin A

Exam item: Consider CON(C)C(=O)Nc1ccc(C2CCCCC2)cc1 . To which logP class does it belong?
Marked response: bin C

Exam item: Consider Cc1c(O)c(=O)ccn1CCCOC(=O)c1ccccn1 . To which logP class does it belong?
Marked response: bin A

Exam item: Consider CN(C)C1=NC(=O)N(c2ccc(Cl)cc2)C1 . To which logP class does it belong?
Marked response: bin A

Exam item: Consider Cc1cccc(CNc2[nH]cnc3ncnc2-3)c1 . To which logP class does it belong?
Marked response: bin B

Exam item: Consider CCCOc1ccc(NC(=O)OCCN2CCCCC2)cc1 . To which logP class does it belong?
Marked response: bin C

Exam item: Consider COC(=O)C1=C(C)NC(C)=C(C(=O)OCc2cccnc2)C1c1cccc2c1OCO2 (stereo not given) . To which logP class does it belong?
Marked response: bin C

Exam item: Consider O=c1cc(-c2ccccc2Cl)oc2ccccc12 . To which logP class does it belong?
Marked response: bin C

Exam item: Consider CC(=O)N(O)CCCCCNC(=O)CCC(=O)N(O)CCCCCNC(=O)CCC(=O)N(O)CCCCCNC(=O)CCC(=O)O . To which logP class does it belong?
Marked response: bin A

Exam item: Consider Cc1cc(Cl)c(C(C)C)c(Cl)c1Cl . To which logP class does it belong?
Marked response: bin C
